# experiment-description: Phase 1 study Part 2: single-dose plasma pharmacokinetics, relative bioavailability (tablet vs AIC) and food effect in healthy subjects
# Format: in vivo, human
# condition-summary: human, plasma, po, 200 mg, Treatment D: 2×100 mg as AIC, single oral dose, fasted; geometric mean (geometric CV%), N=12; read-out: Vz/F (apparent total volume of distribution)
experimental-readout: Vd/F

                                   molecule  endpoint_result
0  C[C@@H]1CC[C@@H](Nc2nc(NC(C)(C)C)ncc2C(N)=O)C[C@H]1O [Compound 1]            447 L

----------
# experiment-description: Phase 1 study Part 2: single-dose plasma pharmacokinetics, relative bioavailability (tablet vs AIC) and food effect in healthy subjects
# Type: in vivo, human
# condition-summary: human, plasma, po, 200 mg, Treatment F: 1×200 mg formulated tablet, single oral dose, fed; geometric mean (geometric CV%), N=12; read-out: AUC∞
experimental-readout: AUC(0-inf) (ng·h/mL)

>>> print(df.to_string())
                                 mol_smiles  endpoint_result
0  C[C@@H]1CC[C@@H](Nc2nc(NC(C)(C)C)ncc2C(N)=O)C[C@H]1O            12300

----------
# experiment-description: Phase 1 study Part 2: single-dose plasma pharmacokinetics, relative bioavailability (tablet vs AIC) and food effect in healthy subjects
# Assay type: in vivo, human
# condition-summary: human, plasma, po, 200 mg, Treatment D: 2×100 mg as AIC, single oral dose, fasted; N=12; read-out: AUC∞, Geometric Mean (ANOVA LS mean)
experimental-readout: AUC(0-inf) (ng·h/mL)

>>> df
                                   molecule  experimental_readout  endpoint_result
0  C[C@@H]1CC[C@@H](Nc2nc(NC(C)(C)C)ncc2C(N)=O)C[C@H]1O [Compound 1]            AUC(0-inf)            13100

----------
# experiment-description: Phase 1 study Part 1: plasma pharmacokinetics after multiple oral doses of Compound 1 as AIC (QD×6 days) in healthy subjects
# Type: in vivo, human
# condition-summary: human; Treatment A: 60 mg as AIC, oral QD×6 days; healthy subjects, plasma; geometric mean (geometric CV%), N=15
experimental-readout: Cmax

In [3]: df
Out[3]:
                                   compound  endpoint_result
0  C[C@@H]1CC[C@@H](Nc2nc(NC(C)(C)C)ncc2C(N)=O)C[C@H]1O [Compound 1]        419 ng/mL

----------
# experiment-description: Phase 1 study Part 2: single-dose plasma pharmacokinetics, relative bioavailability (tablet vs AIC) and food effect in healthy subjects
# Type: in vivo, human
# condition-summary: human, plasma, po, 200 mg, Treatment D: 2×100 mg as AIC, single oral dose, fasted; N=12; read-out: AUCt, Geometric Mean (ANOVA LS mean)
experimental-readout: AUC(0-t) (ng·h/mL)

>>> df
                                 mol_smiles  experimental_readout  endpoint_result
0  C[C@@H]1CC[C@@H](Nc2nc(NC(C)(C)C)ncc2C(N)=O)C[C@H]1O              AUC(0-t)            12900

----------
# experiment-description: Phase 1 study Part 2: single-dose plasma pharmacokinetics, relative bioavailability (tablet vs AIC) and food effect in healthy subjects
# Assay type: in vivo, human
# condition-summary: human, plasma, po, 200 mg, Treatment F: 1×200 mg formulated tablet, single oral dose, fed; geometric mean (geometric CV%), N=12; read-out: Vz/F (apparent total volume of distribution)
experimental-readout: Vd/F (L)

>>> df
                                   molecule  experimental_readout  value_units  endpoint_result
0  C[C@@H]1CC[C@@H](Nc2nc(NC(C)(C)C)ncc2C(N)=O)C[C@H]1O [Compound 1]                  Vd/F            L              510

----------
# experiment-description: Solid state physical stability under stress conditions (XRPD)
# Assay type: physicochemical
# condition-summary: 80° C.; XRPD vs initial material
experimental-readout: Physical stability (open vial, 2 weeks)

                                   compound  endpoint_result
0  CC1CCC(Nc2nc(NC(C)(C)C)ncc2C(N)=O)CC1O.Cl (stereo not drawn) [HCl]        no change
1  O=C(O)[C@H](O)[C@@H](O)C(=O)O [L-tartrate]        no change
2  C[C@@H]1CC[C@@H](Nc2nc(NC(C)(C)C)ncc2C(N)=O)C[C@H]1O.O=S(=O)(O)O        no change
3  CC(O)C(=O)O.CC1CCC(Nc2nc(NC(C)(C)C)ncc2C(N)=O)CC1O [L-lactate]      form change
4  C[C@@H]1CC[C@@H](Nc2nc(NC(C)(C)C)ncc2C(N)=O)C[C@H]1O.O=C(O)C[C@H](O)C(=O)O [L-malate]      form change
5  C[C@@H]1CC[C@@H](Nc2nc(NC(C)(C)C)ncc2C(N)=O)C[C@H]1O.O=P(O)(O)O        no change

----------
# experiment-description: Hygroscopicity by dynamic vapor sorption (DVS)
# Format: physicochemical
# condition-summary: DVS water uptake; L-tartrate: hydrate, difference between 20% RH and 80% RH
Entries annotated with measured Hygroscopicity (80% RH, 25° C., cycle 1 sorption)
experimental-readout: Hygroscopicity (80% RH, 25° C., cycle 1 sorption) (%)

In [3]: df
Out[3]:
                                   compound  endpoint_result
0  C[C@@H]1CC[C@@H](Nc2nc(NC(C)(C)C)ncc2C(N)=O)C[C@H]1O.O=C(O)C[C@H](O)C(=O)O [L-malate]             5.60
1  O=C(O)[C@H](O)[C@@H](O)C(=O)O [L-tartrate]             0.81
2  CC(O)C(=O)O.CC1CCC(Nc2nc(NC(C)(C)C)ncc2C(N)=O)CC1O [L-lactate]             2.65

----------
# experiment-description: Phase 1 study Part 2: single-dose plasma pharmacokinetics, relative bioavailability (tablet vs AIC) and food effect in healthy subjects
# Assay type: in vivo, human
# condition-summary: human, plasma, po, 200 mg, Treatment D: 2×100 mg as AIC, single oral dose, fasted; geometric mean (geometric CV%), N=12; read-out: t1/2 (terminal elimination half-life) (converted)
experimental-readout: half-life (h)

>>> print(df.to_string())
                                 mol_smiles  value_units  endpoint_result
0  C[C@@H]1CC[C@@H](Nc2nc(NC(C)(C)C)ncc2C(N)=O)C[C@H]1O            h             20.3

----------
# experiment-description: Phase 1 study Part 2: single-dose plasma pharmacokinetics, relative bioavailability (tablet vs AIC) and food effect in healthy subjects
# Assay type: in vivo, human
# condition-summary: human, plasma, po, 200 mg, Treatment E: 1×200 mg formulated tablet, single oral dose, fasted; N=12; read-out: tmax, Median (Hodges-Lehmann estimate)
# Description: Part 2 was an open label, randomized, crossover study with three periods. The study consisted of a screening phase (Days −21 to −2), baseline (Day −1), three treatment/assessment periods, and a follow up phone call. Twelve eligible subjects reported to the study center on Day −1 of Period 1 for confinement and baseline assessments. All subjects fasted overnight for at least 10 hours prior to dosing. […] AUCt: AUC from time zero to the last quantifiable concentration. […]
experimental-readout: Tmax (h)

                                 mol_smiles  endpoint_result
0  C[C@@H]1CC[C@@H](Nc2nc(NC(C)(C)C)ncc2C(N)=O)C[C@H]1O                2

----------
# experiment-description: Phase 1 study Part 2: single-dose plasma pharmacokinetics, relative bioavailability (tablet vs AIC) and food effect in healthy subjects
# Format: in vivo, human
# condition-summary: human, plasma, po, 200 mg, Treatment F: 1×200 mg formulated tablet, single oral dose, fed; N=12; read-out: AUCt, Geometric Mean (ANOVA LS mean)
experimental-readout: AUC(0-t) (ng·h/mL)

>>> print(df.to_string())
                                   compound  endpoint_result
0  C[C@@H]1CC[C@@H](Nc2nc(NC(C)(C)C)ncc2C(N)=O)C[C@H]1O [Compound 1]            12000

----------
# experiment-description: Solubility in water and SGF (24 hours, ambient temperature, HPLC/UV)
# Assay type: physicochemical
# condition-summary: pH 8.96, thermodynamic from solid; water, ambient temperature, 24 hours; read-out: Solubility in water (equiv. to free base)
experimental-readout: solubility at 24 h

In [3]: df
Out[3]:
                                 mol_smiles  endpoint_result
0  C[C@@H]1CC[C@@H](Nc2nc(NC(C)(C)C)ncc2C(N)=O)C[C@H]1O         18 µg/mL
